Origin of measurements: PubChem BioAssay AID2060904

- System: 349418-098-R-PDC complex spheroid viability
- Assay notes: Anticancer human tumor 349418-098-R-PDC patient-derived lung adenocarcinoma cell line growth inhibition [RAS]; active = viability on the fitted dose curve at most 10% of control; inactive = the rest
- Condition parameters: second compound 0.01 µM; first compound 0.0316 µM
Answer with one of the outcomes active, inactive

Solved cases (3 shown):
Compound | System tested | Discrete label
Nc1ccn(C2OC(CO)C(O)C2(F)F)c(=O)n1 (stereo not drawn) + C=CC(=O)N1CCN(c2nc(OCC3CCCN3C)nc3c(F)c(-c4nc(N)cc(C)c4C(F)(F)F)c(Cl)cc23)C(C)C1 | 349418-098-R-PDC complex spheroid viability | active
CC(=O)OC12COC1CC(O)C1(C)C(=O)C(O)C3=C(C)C(OC(=O)C(O)C(NC(=O)OC(C)(C)C)c4ccccc4)CC(O)(C(OC(=O)c4ccccc4)C21)C3(C)C (stereo not drawn) + C=CC(=O)N1CCN(c2nc(OCC3CCCN3C)nc3c(F)c(-c4nc(N)cc(C)c4C(F)(F)F)c(Cl)cc23)C(C)C1 | 349418-098-R-PDC complex spheroid viability | inactive
C[C@@H](NC(=O)c1ncnc(N)c1Cl)c1ncc(C(=O)Nc2cc(C(F)(F)F)c(Cl)cn2)s1 + C=CC(=O)N1CCN(c2nc(OCC3CCCN3C)nc3c(F)c(-c4nc(N)cc(C)c4C(F)(F)F)c(Cl)cc23)C(C)C1 | 349418-098-R-PDC complex spheroid viability | inactive

[Q] Dear all, I need the recorded test outcome for C=CC(=O)Nc1cc(Nc2nccc(-c3cn(C)c4ccccc34)n2)c(OC)cc1N(C)CCN(C)C + C=CC(=O)N1CCN(c2nc(OCC3CCCN3C)nc3c(F)c(-c4nc(N)cc(C)c4C(F)(F)F)c(Cl)cc23)C(C)C1 , thank you.
[A] inactive

[Q] Dear all, I need the recorded test outcome for NC1c2ccccc2OC12CCN(c1cnc3c(N4CCCc5ncccc54)n[nH]c3n1)CC2 (stereo not drawn) + C=CC(=O)N1CCN(c2nc(OCC3CCCN3C)nc3c(F)c(-c4nc(N)cc(C)c4C(F)(F)F)c(Cl)cc23)C(C)C1 , thank you.
[A] inactive

[Q] Dear all, I need the recorded test outcome for Cc1nc(N2CCC3(CC2)COC(C)C3N)c(CO)nc1Sc1ccnc(N)c1Cl (stereo not drawn) + C=CC(=O)N1CCN(c2nc(OCC3CCCN3C)nc3c(F)c(-c4nc(N)cc(C)c4C(F)(F)F)c(Cl)cc23)C(C)C1 , thank you.
[A] inactive

[Q] Dear all, I need the recorded test outcome for CC(C)n1nc(-c2ccc3oc(N)nc3c2)c2c(N)ncnc21 + C=CC(=O)N1CCN(c2nc(OCC3CCCN3C)nc3c(F)c(-c4nc(N)cc(C)c4C(F)(F)F)c(Cl)cc23)C(C)C1 , thank you.
[A] inactive

[Q] Dear all, I need the recorded test outcome for CC1(O)CCCC1n1c(=O)c(C(F)F)cc2cnc(NC3CCN(S(C)(=O)=O)CC3)nc21 (stereo not drawn) + C=CC(=O)N1CCN(c2nc(OCC3CCCN3C)nc3c(F)c(-c4nc(N)cc(C)c4C(F)(F)F)c(Cl)cc23)C(C)C1 , thank you.
[A] inactive

====

Recorded viability, T/C by entry
- System: 349418-098-R-PDC complex spheroid viability
- Assay notes: Anticancer human tumor 349418-098-R-PDC cell line growth inhibition [RAS];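 note: spheroids exposed to compound for seven days before viability readout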
- Condition parameters: second compound 0.01 µM; first compound 0.00316 µM; active compounds read low
- Source text: RAS pathway inhibitors in Combinations in Complex Spheroids A high-throughput screen of multi-cell type tumor spheroids was designed to identify active combinations of RAS pathway inhibitors and targeted small molecules. Complex spheroids include a stromal component modeled by human endothelial cells (HUVEC) and fibroblasts modeled by human mesenchymal stem cells (MSCs). […] Compounds. […] If the clinical Cmax for an agent had not been determined, the highest concentration tested was 10 microM. […]
Answer with a number only, understood to be in %.

The cases that follow already have their viability, T/C on record.
Compound | Value type | Observed value
CCN1CCN(Cc2ccc(Nc3ncc(F)c(-c4cc(F)c5nc(C)n(C(C)C)c5c4)n3)nc2)CC1 + C=CC(=O)N1CCN(c2nc(OCC3CCCN3C)nc3c(F)c(-c4nc(N)cc(C)c4C(F)(F)F)c(Cl)cc23)C(C)C1 | viability, T/C | 89.4
C=CC(=O)Nc1cc(Nc2nccc(-c3cn(C)c4ccccc34)n2)c(OC)cc1N(C)CCN(C)C + C=CC(=O)N1CCN(c2nc(OCC3CCCN3C)nc3c(F)c(-c4nc(N)cc(C)c4C(F)(F)F)c(Cl)cc23)C(C)C1 | viability, T/C | 83.7
CC(C)n1nc(-c2ccc3oc(N)nc3c2)c2c(N)ncnc21 + C=CC(=O)N1CCN(c2nc(OCC3CCCN3C)nc3c(F)c(-c4nc(N)cc(C)c4C(F)(F)F)c(Cl)cc23)C(C)C1 | viability, T/C | 54.2

[Q] Bench note: what viability, T/C did Nc1ccn(C2OC(CO)C(O)C2(F)F)c(=O)n1 (stereo not given) + C=CC(=O)N1CCN(c2nc(OCC3CCCN3C)nc3c(F)c(-c4nc(N)cc(C)c4C(F)(F)F)c(Cl)cc23)C(C)C1 show?
[A] 17

[Q] Bench note: what viability, T/C did O=C(c1ccc(F)c(F)c1Nc1ccc(I)cc1F)N1CC(O)([C@@H]2CCCCN2)C1 + C=CC(=O)N1CCN(c2nc(OCC3CCCN3C)nc3c(F)c(-c4nc(N)cc(C)c4C(F)(F)F)c(Cl)cc23)C(C)C1 show?
[A] 37.7

====

- Test system: 349418-098-R-PDC complex spheroid viability
- Assay notes: Anticancer human tumor 349418-098-R-PDC cell line growth inhibition [RAS];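 note: spheroids exposed to compound for seven days before viability readout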
- Condition parameters: second compound 0.1 µM; first compound 1 µM; active compounds read low
Value type: viability, T/C (%)
Answer with a number only, understood to be in %.

The cases that follow already have their viability, T/C on record.
Compound | Unit abbrev | Observed value
Nc1ccn(C2OC(CO)C(O)C2(F)F)c(=O)n1 (stereo not given) + C=CC(=O)N1CCN(c2nc(OCC3CCCN3C)nc3c(F)c(-c4nc(N)cc(C)c4C(F)(F)F)c(Cl)cc23)C(C)C1 | % | 4.84
O=C(c1ccc(F)c(F)c1Nc1ccc(I)cc1F)N1CC(O)([C@@H]2CCCCN2)C1 + C#Cc1c(F)ccc2cc(O)cc(-c3ncc4c(N5CC6CCC(C5)N6)nc(OCC56CCCN5CC(F)C6)nc4c3F)c12 | % | 4.83
Cc1nc(N2CCC3(CC2)COC(C)C3N)c(CO)nc1Sc1ccnc(N)c1Cl (stereo not given) + C=CC(=O)N1CCN(c2nc(OCC3CCCN3C)nc3c(F)c(-c4nc(N)cc(C)c4C(F)(F)F)c(Cl)cc23)C(C)C1 | % | 87.3
C[C@@H](NC(=O)c1ncnc(N)c1Cl)c1ncc(C(=O)Nc2cc(C(F)(F)F)c(Cl)cn2)s1 + C#Cc1c(F)ccc2cc(O)cc(-c3ncc4c(N5CC6CCC(C5)N6)nc(OCC56CCCN5CC(F)C6)nc4c3F)c12 | % | 73.2
C=CC(=O)N1CCN(c2nc(OCC3CCCN3C)nc3c(F)c(-c4nc(N)cc(C)c4C(F)(F)F)c(Cl)cc23)C(C)C1 (stereo not given) + C#Cc1c(F)ccc2cc(O)cc(-c3ncc4c(N5CC6CCC(C5)N6)nc(OCC56CCCN5CC(F)C6)nc4c3F)c12 | % | 83.9

[Q] Bench note: what viability, T/C did CCN1CCN(Cc2ccc(Nc3ncc(F)c(-c4cc(F)c5nc(C)n(C(C)C)c5c4)n3)nc2)CC1 + C=CC(=O)N1CCN(c2nc(OCC3CCCN3C)nc3c(F)c(-c4nc(N)cc(C)c4C(F)(F)F)c(Cl)cc23)C(C)C1 show?
[A] 17.4

====

- System: 349418-098-R-PDC complex spheroid viability
- Assay notes: Anticancer human tumor 349418-098-R-PDC cell line growth inhibition [RAS];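 note: spheroids exposed to compound for seven days before viability readout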
- Condition parameters: second compound 0.00949 µM; first compound 1 µM; active compounds read low
Recorded viability, T/C by entry

Compound | viability, T/C
CC(Nc1ccc2c(c1)OCCn1cc(N3C(=O)OCC3C(F)F)nc1-2)C(N)=O (configuration not stated) + CCn1c(-c2cc(N3CCN(C)CC3)cnc2C(C)OC)c2c3cc(ccc31)-c1csc(n1)CC(NC(=O)C1CC1C)C(=O)N1CCCC(N1)C(=O)OCC(C)(C)C2 | 21.4%

As a next step, examine the compound that follows.
[Q] Bench note: what viability, T/C did CCN1CCN(Cc2ccc(Nc3ncc(F)c(-c4cc(F)c5nc(C)n(C(C)C)c5c4)n3)nc2)CC1 + CCn1c(-c2cc(N3CCN(C)CC3)cnc2C(C)OC)c2c3cc(ccc31)-c1csc(n1)CC(NC(=O)C1CC1C)C(=O)N1CCCC(N1)C(=O)OCC(C)(C)C2 show?
[A] 12.7%

====

- Test system: 349418-098-R-PDC complex spheroid viability
- Assay notes: Anticancer human tumor 349418-098-R-PDC cell line growth inhibition [RAS];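 note: spheroids exposed to compound for seven days before viability readout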
- Condition parameters: second compound 0.003 µM; first compound 3.16 µM; active compounds read low
# strict inequality: viability, T/C < 30% yields 1, everything else yields -1

Compound | System tested | Discrete label
C[C@@H](NC(=O)c1ncnc(N)c1Cl)c1ncc(C(=O)Nc2cc(C(F)(F)F)c(Cl)cn2)s1 + CCn1c(-c2cccnc2C(C)OC)c2c3cc(ccc31)N1CCOC(CC(NC(=O)C(C(C)C)N(C)C(=O)C3(F)CCN(C(=O)C#CC(C)(C)N(C)C)CC3)C(=O)N3CCCC(N3)C(=O)OCC(C)(C)C2)C1 | 349418-098-R-PDC complex spheroid viability | -1
CC(=O)OC12COC1CC(O)C1(C)C(=O)C(O)C3=C(C)C(OC(=O)C(O)C(NC(=O)OC(C)(C)C)c4ccccc4)CC(O)(C(OC(=O)c4ccccc4)C21)C3(C)C (stereo not drawn) + CCn1c(-c2cccnc2C(C)OC)c2c3cc(ccc31)N1CCOC(CC(NC(=O)C(C(C)C)N(C)C(=O)C3(F)CCN(C(=O)C#CC(C)(C)N(C)C)CC3)C(=O)N3CCCC(N3)C(=O)OCC(C)(C)C2)C1 | 349418-098-R-PDC complex spheroid viability | 1
NC1c2ccccc2OC12CCN(c1cnc3c(N4CCCc5ncccc54)n[nH]c3n1)CC2 (stereo not drawn) + CCn1c(-c2cc(N3CCN(C)CC3)cnc2C(C)OC)c2c3cc(ccc31)-c1csc(n1)CC(NC(=O)C1CC1C)C(=O)N1CCCC(N1)C(=O)OCC(C)(C)C2 | 349418-098-R-PDC complex spheroid viability | -1

[Q] Bench note: check whether CC(Nc1ccc2c(c1)OCCn1cc(N3C(=O)OCC3C(F)F)nc1-2)C(N)=O (stereo not drawn) + CCn1c(-c2cc(N3CCN(C)CC3)cnc2C(C)OC)c2c3cc(ccc31)-c1csc(n1)CC(NC(=O)C1CC1C)C(=O)N1CCCC(N1)C(=O)OCC(C)(C)C2 shows viability, T/C below 30%
[A] 1

[Q] Bench note: check whether CCC(CC)c1cc(NC2CCC(N)C2)n2nccc2n1 (stereo not drawn) + CCn1c(-c2cccnc2C(C)OC)c2c3cc(ccc31)N1CCOC(CC(NC(=O)C(C(C)C)N(C)C(=O)C3(F)CCN(C(=O)C#CC(C)(C)N(C)C)CC3)C(=O)N3CCCC(N3)C(=O)OCC(C)(C)C2)C1 shows viability, T/C below 30%
[A] 1

[Q] Bench note: check whether Cc1nc(N2CCC3(CC2)COC(C)C3N)c(CO)nc1Sc1ccnc(N)c1Cl (stereo not drawn) + CCn1c(-c2cc(N3CCN(C)CC3)cnc2C(C)OC)c2c3cc(ccc31)-c1csc(n1)CC(NC(=O)C1CC1C)C(=O)N1CCCC(N1)C(=O)OCC(C)(C)C2 shows viability, T/C below 30%
[A] -1

[Q] Bench note: check whether NC1c2ccccc2OC12CCN(c1cnc3c(N4CCCc5ncccc54)n[nH]c3n1)CC2 (stereo not drawn) + CCn1c(-c2cccnc2C(C)OC)c2c3cc(ccc31)N1CCOC(CC(NC(=O)C(C(C)C)N(C)C(=O)C3(F)CCN(C(=O)C#CC(C)(C)N(C)C)CC3)C(=O)N3CCCC(N3)C(=O)OCC(C)(C)C2)C1 shows viability, T/C below 30%
[A] -1
